Documented normalized growth across a set of molecules
- assay comment: chemical genetic growth profiling, strain panel (AID 1159580);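 note: tested at 20 µM; growth read once vehicle control cultures reached saturation at 30 °C; 1 = growth at the plate median or of vehicle wells; lower values mean less growth of the strain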
- experimental conditions: S. cerevisiae deletion strains, growth OD, locus YGL227W, strain vid30, active compounds read low
The whole screen tested about 5,500 compounds, of which about 2,000 (36%) were called active. Another 18% or so got no clear call; they are omitted. The list shows a part of the results.
observed property: normalized growth

{"molecule": "O=C(O)CF", "numeric readout": 1.02}
{"molecule": "CC(=O)Nc1ccc(S(=O)(=O)c2ccc(NC(C)=O)cc2)cc1", "numeric readout": 1.01}
{"molecule": "CCOP(=S)(OCC)SCn1c(=O)oc2cc(Cl)ccc21", "numeric readout": 0.963}
{"molecule": "CC1(C)C(C(Cl)Cl)C2(Cl)C(Cl)C(Cl)C1(Cl)C2(Cl)Cl (stereo unspecified)", "numeric readout": 0.99}
{"molecule": "C=CC(C1=CC(=O)C(OC)=CC1=O)c1ccc(O)cc1 (stereo unspecified)", "numeric readout": 0.999}
{"molecule": "C=CC(C1=CC(=O)C(OC)=CC1=O)c1ccc(OC)cc1 (stereo unspecified)", "numeric readout": 0.993}
{"molecule": "Cc1occc(=O)c1O", "numeric readout": 0.966}
{"molecule": "Nc1ncnc2c1ncn2C1C[C@H](O)[C@@H](CO)O1 (stereo partly specified)", "numeric readout": 1.01}
{"molecule": "CN/C(=C\\[N+](=O)[O-])NCCSCc1ccc(CN(C)C)o1", "numeric readout": 0.978}
{"molecule": "C=CC(C1=CC(=O)C=CC1=O)c1ccccc1 (stereo unspecified)", "numeric readout": 1.01}
{"molecule": "CC(=O)O[C@H]1C[C@@H](OC(C)=O)C(C)(C)C2C[C@@H](OC(C)=O)[C@@]3(C)C4=CC(=O)O[C@@H](c5ccoc5)[C@]4(C)CCC3[C@]21C (stereo partly specified)", "numeric readout": 0.998}
